Experiment: Metabolic stability test in liver microsomes (mouse)
Assay type: in vitro ADME
Conditions: percentage of remaining compound after incubation for 30 minutes vs 0 minute; 1 μM compound; 0.5 mg/mL liver microsomes; 37° C.
Value kind: Mouse liver microsome stability (%)

[2H]C1([2H])CCC(c2nc(N[C@H](C)C(F)(F)F)nc(N[C@H](C)C(F)(F)F)n2)=C(F)C1O (stereo partly drawn)    93.1
[2H]C1([2H])CCC(c2nc(NC3CC(F)(F)C3)nc(NC3CC(F)(F)C3)n2)=C(F)C1([2H])O (racemic)    70.5
[2H]C1(O)CCCC(c2nc(N[C@H](C)C(F)(F)F)nc(N[C@H](C)C(F)(F)F)n2)=C1F (mixture of isomers)    82.7

---

Biological target: IDH2-R140Q (Homo sapiens, UniProt P48735, R140Q)
Sequence (P48735 40-452 R140Q): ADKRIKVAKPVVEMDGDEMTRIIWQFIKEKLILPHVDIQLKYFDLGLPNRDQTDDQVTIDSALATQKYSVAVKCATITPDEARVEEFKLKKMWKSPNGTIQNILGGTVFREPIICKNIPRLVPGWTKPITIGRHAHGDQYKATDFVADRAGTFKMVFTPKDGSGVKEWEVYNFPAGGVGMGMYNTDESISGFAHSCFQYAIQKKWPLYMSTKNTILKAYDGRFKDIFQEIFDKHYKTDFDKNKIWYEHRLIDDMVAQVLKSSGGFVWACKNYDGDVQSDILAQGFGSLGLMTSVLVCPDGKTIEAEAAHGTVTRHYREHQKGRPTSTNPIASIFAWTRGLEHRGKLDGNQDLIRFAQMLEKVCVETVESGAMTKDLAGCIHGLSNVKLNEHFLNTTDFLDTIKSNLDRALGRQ
Experiment: Fluorescent determination of IDH2-R140Q cell activity (2-HG in U87MGR140Q cells)
Settings: 72 hours incubation, read-out: IC50 (2-HG inhibition)
Value kind: IC50 (nM)

[2H]C([2H])([2H])C([2H])(Nc1nc(N[C@H](C)C(F)(F)F)nc(C2=C(F)C(O)CCC2)n1)C([2H])([2H])[2H] (stereo partly shown)    229
C[C@@H](Nc1nc(N[C@H](C)C(F)(F)F)nc(C2=C(F)C(O)C(F)CC2)n1)C(F)(F)F (single isomer, unassigned) [Compound 97]    52
C[C@@H](Nc1nc(NC2COC2)nc(C2=CC(O)CCC2)n1)C(F)(F)F (stereo partly shown)    934

(1) [2H]C1(O)CCCC(c2nc(NC(C)C)nc(N[C@H](C)C(F)(F)F)n2)=C1F (mixture of isomers)
(2) COC1C=C(c2nc(N[C@H](C)C(F)(F)F)nc(N[C@H](C)C(F)(F)F)n2)CCC1 (mixture of isomers)
(3) C[C@@H](Nc1nc(NOC(C)(C)C)nc(C2=C(F)C(O)CCC2)n1)C(F)(F)F (mixture of isomers)
Problem: Arrange the 3 compounds from largest to smallest IC50. Form entry: ranked labels (order as requested).
Solution: 2, 3, 1
(2: 2390 nM, 3: 344 nM, 1: 192 nM)

(I) OC1C(F)=C(c2nc(Nc3ccnc(C(F)(F)F)c3)nc(N3CC(F)(F)C3)n2)CCC1(F)F (single isomer, unassigned)
(II) CC(C)(O)CNc1nc(Nc2ccn3nccc3c2)nc(C2=C(F)C(O)CCC2)n1 (stereo not shown)
Problem: Of I and II , which one carries the higher reported IC50? Write down the label attached to your selection.
Solution: II
(II: 2370 nM, I: 487 nM)

(A) C[C@@H](Nc1nc(NCC(C)(C)O)nc(C2=CCCCC2)n1)C(F)(F)F
(B) Cc1nccc(Nc2nc(NOC(C)(C)C)nc(C3=C(F)C(O)CCC3)n2)n1 (stereo not shown)
(C) C[C@@H](Nc1nc(NCC2CC2)nc(C2=C(F)C(O)C(F)(F)CC2)n1)C(F)(F)F (mixture of isomers) [Compound 209]
(D) CCCNc1nc(N[C@H](C)C(F)(F)F)nc(C2=C(F)C(O)[C@@H](F)CC2)n1 (stereo partly shown)
Problem: Highest IC50 first, then in falling order down to the smallest. Arrange the labels as the request states and list them.
Solution: A, B, C, D

(A) C[C@@H](Nc1nc(NC2CCC(F)(F)C2)nc(C2=CC(O)CCC2)n1)C(F)(F)F (mixture of isomers) [Compound 176]
(B) CC(C)Nc1nc(Nc2ccnc(F)c2)nc(C2=C(F)C(O)CCC2)n1 (stereo not shown)
Problem: // max by IC50 over [ A , B ] Identify your selection by its label.
Solution: A
(A: 612 nM, B: 34 nM)

(a) C[C@@H](Nc1nc(NC2(C)CC2)nc(C2=CC(O)CCC2)n1)C(F)(F)F (mixture of isomers)
(b) C[C@@H](Nc1nc(NC(CF)CF)nc(C2=C(F)C(O)CCC2)n1)C(F)(F)F (stereo partly shown)
(c) C[C@H](Nc1nc(NC2CC(F)(F)C2)nc(C2=C(F)C(O)C(F)(F)CC2)n1)C(F)(F)F (mixture of isomers)
(d) C[C@@H](Nc1nc(N[C@H](C)C2CC2)nc(C2=CCCCC2)n1)C1CC1
(e) CC(C)(C)ONc1nc(Nc2ccc3sncc3c2)nc(C2=C(F)C(O)CCC2)n1 (racemic)
Problem: Sequence the entries by IC50, beginning with the highest number. Respond with the label ranking, as requested.
Solution: d, a, b, e, c

(1) C[C@@H](Nc1nc(N[C@H](C)C(F)(F)F)c(F)c(C2=CC(O)CCC2)n1)C(F)(F)F (mixture of isomers)
(2) [2H]C1(O)CCCCC(c2nc(NC3CC(F)(F)C3)nc(NC3CC(F)(F)C3)n2)=C1F (stereo not shown)
Problem: Field: lower IC50 | Options: 1 / 2 Refer to your chosen entry by its label in the reply.
Solution: 2

(P) C[C@@H](Nc1nc(NC2CC2)nc(C2=C(F)C(O)CCC2)n1)C(F)(F)F (mixture of isomers) [Compound 162]
(Q) C[C@@H](Nc1nc(N[C@H](C)C(F)(F)F)nc(C2=C(F)C(O)CCC2)n1)C(F)(F)F (stereo partly shown) [Compound 82]
(R) CONc1nc(N[C@H](C)C(F)(F)F)nc(C2=C(F)C(O)C(F)(F)CC2)n1 (mixture of isomers)
(S) [2H]C1([2H])CCC(c2nc(NC3CC(F)(F)C3)nc(N[C@@H](C)C(F)(F)F)n2)=C(F)C1O (stereo partly shown)
(T) C[C@@H](Nc1nc(NCC2CCC2(F)F)nc(C2=C(F)C(O)CCC2)n1)C(F)(F)F (mixture of isomers)
Problem: Ascending sort, IC50. Provide your answer as the labels ordered per the instruction.
Solution: S, Q, P, T, R

(I) [2H]C1([2H])CCC(c2nc(NC3CC(F)(F)C3)nc(NC3CC(F)(F)C3)n2)=C(F)C1([2H])O (racemic)
(II) [2H]C([2H])([2H])C([2H])(Nc1nc(N[C@@H](C)C(F)(F)F)nc(C2=C(F)C(O)CCC2)n1)C([2H])([2H])[2H] (stereo partly shown)
Problem: Determine, for I and II , which has the greater value of IC50. When you have decided, please share the label of that item.
Solution: II
